Measured log10(IC50) (Acetylcholinesterase (Torpedo californica, UniProt P04058))
A difference of one corresponds to tenfold IC50; all values are log10 with IC50 in nM.

Answered examples (5):
{"columns": ["smi", "metric", "observed"],
 "data": [
  ["CC[N+](CC)(CC)CCOc1ccc(C(=O)NCCCCCC(=O)NNc2c3c(nc4cc(Cl)ccc24)CCCC3)cc1", "log10(IC50)", 2.10],
  ["CC[N+](CC)(CC)CCOc1cc(OCC[N+](CC)(CC)CC)c(C(=O)NCCCCCC(=O)NNc2c3c(nc4cc(Cl)ccc24)CCCC3)cc1OCC[N+](CC)(CC)CC", "log10(IC50)", 2.52],
  ["CC[N+](CC)(CC)CCOc1cc(OCC[N+](CC)(CC)CC)cc(C(=O)NCCCCCC(=O)NNc2c3c(nc4ccccc24)CCCC3)c1", "log10(IC50)", 0.93],
  ["CC[N+](CC)(CC)CCOc1cc(OCC[N+](CC)(CC)CC)c(C(=O)NCCCCCC(=O)NNc2c3c(nc4ccccc24)CCCC3)cc1OCC[N+](CC)(CC)CC", "log10(IC50)", 1.44],
  ["CC[N+](CC)(CC)CCOc1cc(OCC[N+](CC)(CC)CC)cc(C(=O)NCCCCCC(=O)NNc2c3c(nc4cc(Cl)ccc24)CCCC3)c1", "log10(IC50)", 2.48]
]}

Now, please, on to the next molecule.
Lab note: need log10(IC50) with Acetylcholinesterase (Torpedo californica, UniProt P04058) for entry CC[N+](CC)(CC)CCOc1ccc(C(=O)NCCCCCC(=O)NNc2c3c(nc4ccccc24)CCCC3)cc1 , please look it up.
Sequence (P04058 whole entry): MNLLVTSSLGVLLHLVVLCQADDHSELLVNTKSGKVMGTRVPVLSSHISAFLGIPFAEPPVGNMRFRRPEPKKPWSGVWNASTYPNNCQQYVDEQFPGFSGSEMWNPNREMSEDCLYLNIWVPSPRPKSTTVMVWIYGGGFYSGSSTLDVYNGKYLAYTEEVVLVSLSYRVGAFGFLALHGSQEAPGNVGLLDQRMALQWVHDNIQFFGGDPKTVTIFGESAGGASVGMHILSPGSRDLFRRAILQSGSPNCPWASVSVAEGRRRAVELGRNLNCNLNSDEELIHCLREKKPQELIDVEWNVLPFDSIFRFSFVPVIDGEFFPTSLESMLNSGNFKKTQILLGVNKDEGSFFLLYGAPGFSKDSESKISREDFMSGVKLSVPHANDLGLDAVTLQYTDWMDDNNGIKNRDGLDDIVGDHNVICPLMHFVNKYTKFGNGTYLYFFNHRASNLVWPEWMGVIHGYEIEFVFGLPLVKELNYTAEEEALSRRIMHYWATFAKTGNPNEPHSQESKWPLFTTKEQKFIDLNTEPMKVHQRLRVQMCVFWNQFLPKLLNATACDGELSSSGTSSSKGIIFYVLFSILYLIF
1.25

----------
Listed here: compounds with reported pIC50 for Acetylcholinesterase (Homo sapiens).
// field semantics: pIC50 = negative decimal log of concentration (mol/L)

Reference set, count: 5
{"columns": ["compound", "assaySystem", "metric", "observed"],
 "data": [
  ["CC[N+](CC)(CC)CCOc1cc(OCC[N+](CC)(CC)CC)cc(C(=O)NCCCCCC(=O)NNc2c3c(nc4ccccc24)CCCC3)c1", "Acetylcholinesterase (Homo sapiens)", "pIC50", 7.80],
  ["CC[N+](CC)(CC)CCOc1ccc(C(=O)NCCCCCC(=O)NNc2c3c(nc4ccccc24)CCCC3)cc1", "Acetylcholinesterase (Homo sapiens)", "pIC50", 8.12],
  ["CC[N+](CC)(CC)CCOc1cc(OCC[N+](CC)(CC)CC)cc(C(=O)NCCCCCC(=O)NNc2c3c(nc4cc(Cl)ccc24)CCCC3)c1", "Acetylcholinesterase (Homo sapiens)", "pIC50", 8.17],
  ["CC[N+](CC)(CC)CCOc1cccc(OCC[N+](CC)(CC)CC)c1OCC[N+](CC)(CC)CC [GALLAMINE]", "Acetylcholinesterase (Homo sapiens)", "pIC50", 2.68],
  ["CC[N+](CC)(CC)CCOc1cc(OCC[N+](CC)(CC)CC)c(C(=O)NCCCCCC(=O)NNc2c3c(nc4cc(Cl)ccc24)CCCC3)cc1OCC[N+](CC)(CC)CC", "Acetylcholinesterase (Homo sapiens)", "pIC50", 8.18]
]}

Shifting focus to the compound that follows.
Return reported pIC50; argument: CC[N+](CC)(CC)CCOc1ccc(C(=O)NCCCCCC(=O)NNc2c3c(nc4cc(Cl)ccc24)CCCC3)cc1
8.26

----------
Biological target: Muscarinic acetylcholine receptor M2 (Sus scrofa)
Sequence (P06199 whole entry): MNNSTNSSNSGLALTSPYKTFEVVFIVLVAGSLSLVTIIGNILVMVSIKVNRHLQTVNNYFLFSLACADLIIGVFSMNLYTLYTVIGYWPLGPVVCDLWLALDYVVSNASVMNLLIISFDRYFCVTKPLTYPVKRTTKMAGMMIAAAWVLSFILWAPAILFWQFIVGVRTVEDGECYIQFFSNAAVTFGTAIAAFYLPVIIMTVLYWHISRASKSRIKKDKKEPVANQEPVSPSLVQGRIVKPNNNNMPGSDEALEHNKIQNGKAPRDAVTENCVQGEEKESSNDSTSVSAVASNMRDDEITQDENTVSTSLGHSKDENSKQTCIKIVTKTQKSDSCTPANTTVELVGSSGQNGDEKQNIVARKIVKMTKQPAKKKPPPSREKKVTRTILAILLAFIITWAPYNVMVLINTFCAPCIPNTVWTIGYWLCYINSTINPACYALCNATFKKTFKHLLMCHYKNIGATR
metric: EC50 (nM)
Form entry: value (nM) — number only.

{"columns": ["smi", "metric", "unitTag", "observed"],
 "data": [
  ["CC[N+](CC)(CC)CCOc1cc(OCC[N+](CC)(CC)CC)cc(C(=O)NCCCCCC(=O)NNc2c3c(nc4ccccc24)CCCC3)c1", "EC50", "nM", 0.9],
  ["CC[N+](CC)(CC)CCOc1cccc(OCC[N+](CC)(CC)CC)c1OCC[N+](CC)(CC)CC", "EC50", "nM", 130],
  ["CC[N+](CC)(CC)CCOc1ccc(C(=O)NCCCCCC(=O)NNc2c3c(nc4cc(Cl)ccc24)CCCC3)cc1", "EC50", "nM", 5],
  ["CC[N+](CC)(CC)CCOc1ccc(C(=O)NCCCCCC(=O)NNc2c3c(nc4ccccc24)CCCC3)cc1", "EC50", "nM", 1.3],
  ["CC[N+](CC)(CC)CCOc1cc(OCC[N+](CC)(CC)CC)cc(C(=O)NCCCCCC(=O)NNc2c3c(nc4cc(Cl)ccc24)CCCC3)c1", "EC50", "nM", 1.5],
  ["CC[N+](CC)(CC)CCOc1cc(OCC[N+](CC)(CC)CC)c(C(=O)NCCCCCC(=O)NNc2c3c(nc4cc(Cl)ccc24)CCCC3)cc1OCC[N+](CC)(CC)CC", "EC50", "nM", 1]
]}

With those in mind, consider the next compound.
What value of EC50 on Muscarinic acetylcholine receptor M2 (Sus scrofa) does CC[N+](CC)(CC)CCOc1cc(OCC[N+](CC)(CC)CC)c(C(=O)NCCCCCC(=O)NNc2c3c(nc4ccccc24)CCCC3)cc1OCC[N+](CC)(CC)CC have?
1.4

Data provenance is ChEMBL document CHEMBL1138241.
